# Organism: Rattus norvegicus
# assayNotes: Open TG-GATES - Regimen: Single
# Type: toxicity, organism-based, Sprague-Dawley
# Parameters: regimen Single, gender Male, age 6 weeks
# appliedConditions: in vivo, po, 0 mg/kg, 9 h, tissue Plasma, route gavage, dose level Control
// values below are reported TP

Solved entries (count: 2):
Ask | Reported TP, molecule C[C@H]1O[C@H](O[C@H]2[C@H](O)[C@@H](O)[C@@H](O[C@H]3[C@H](O)[C@@H](O)C(O)O[C@@H]3CO)O[C@@H]2CO)[C@H](O)[C@@H](O)[C@@H]1N[C@H]1C=C(CO)[C@@H](O)[C@H](O)[C@H]1O (stereo partly drawn) [ACARBOSE] : ____
Reply | 5.2 g/dL

Ask | Then C=C(C)[C@H]1Cc2c(ccc3c2O[C@@H]2COc4cc(OC)c(OC)cc4[C@@H]2C3=O)O1 [ROTENONE] ?
Reply | 5.3 g/dL

Please look at the following molecule next.
Ask | Reported TP, molecule C[C@H]1C(=O)O[C@@H]2CCN3CC=C(COC(=O)[C@](C)(O)[C@]1(C)O)[C@H]23 [MONOCROTALINE] : ____
Reply | 5.4 g/dL
